test system: SNB-19 CNS; assay: NCI-60 one-dose screen, 48 h (100 = growth as untreated, 0 = no growth, -100 = all killed); conditions: 10 µM unless noted
The panel holds about 83,000 compounds, 20% with a hit somewhere; the sample as a whole holds those more often.
readout.kind: growth (%)
Give bare numbers, in %.

Take a look at these entries with their results.
[
  {
    "molecule": "C[C@]12CC[C@H]3[C@@H](C[C@@H]4SC(Nc5cccc(F)c5)=N[C@@]45CC(=O)CC[C@]35C)[C@@H]1CCC2=O",
    "assayed.target": "SNB-19 CNS",
    "growth, %": 62.8
  },
  {
    "molecule": "N#CCCc1ccccc1",
    "assayed.target": "SNB-19 CNS",
    "growth, %": 97.7
  },
  {
    "molecule": "O=CC1(c2ccccc2)CCN(Cc2ccccc2)CC1",
    "assayed.target": "SNB-19 CNS",
    "growth, %": 109
  },
  {
    "molecule": "CO/N=C1\\CC[C@]2(C)[C@H]3CC[C@]4(C)C(=O)CC[C@H]4[C@@H]3C[C@@H]3SC(N)=N[C@@]32C1",
    "assayed.target": "SNB-19 CNS",
    "growth, %": 104
  },
  {
    "molecule": "COc1cc(-c2ccc(N)c(OC)c2)ccc1N",
    "assayed.target": "SNB-19 CNS",
    "growth, %": 102
  }
]

Give measured growth for every item shown.
1. Nc1ccc(S(=O)(=O)F)cc1
2. C/C(=N/OC(=O)N(C)C)c1ccc(Cl)c(Cl)c1
3. O=P1(N(CCCl)CCCl)NCCCO1 (configuration not stated)
4. CC1=C(C)C(=O)O[C@@H]([C@](C)(O)[C@]2(O)CC[C@@]3(O)[C@@H]4C[C@H]5O[C@]56CC=CC(=O)[C@]6(C)[C@H]4CC[C@]23C)C1
5. COC(=O)CCP(CCC(=O)OC)c1ccccc1

-- reply
1. 105
2. 99.4
3. 102
4. 30.8
5. 119

Give measured growth for every item shown.
1. COC1C(O)CC(OC2CC(Oc3cc4cc5c(c(O)c4c(O)c3C)C(=O)[C@@H](OC3CC(OC4CC(OC6CC(C)(O)C(OC(C)=O)C(C)O6)C(O)C(C)O4)C(O)C(C)O3)[C@H]([C@H](OC)C(=O)[C@@H](O)[C@@H](C)O)C5)OC(C)C2OC(C)=O)OC1C (some centres not stated)
2. CCC(Br)(CC)C(=O)NC(N)=O
3. O=C/C=C/c1ccco1
4. N#CC(C#N)=C(C#N)C#N
5. C[C@]12CC[C@H]3[C@@H](C[C@@H]4SC(Nc5ccccc5)=N[C@@]45C/C(=N/O)CC[C@]35C)[C@@H]1CCC2=O
6. CCCCOC(N)=O
7. COc1ccc2c(c1)c(-c1nc(-c3cn(C)c4ncccc34)cs1)cn2CCCCN1CCOCC1

-- reply
5.7
104
106
102
60.3
98
35.1

====

system: PC-3 prostate; experiment: NCI-60 one-dose screen, 48 h (100 = growth as untreated, 0 = no growth, -100 = all killed); details: 10 µM unless noted
Compounds without any hit were thinned out: in the full panel of roughly 83,000, 20% have a hit.
readout.kind: growth (%)
Numbers only, in %.

Take a look at these entries with their results.
[
  {
    "smiles.string": "CCCCn1c(=O)c(C(=O)NCc2ccccc2Cl)c(O)c2ccccc21",
    "assayed.target": "PC-3 prostate",
    "growth, %": 34.1
  },
  {
    "smiles.string": "CC/C(Cc1ccccc1)=C(\\c1ccc(OCCN2CCCC2)cc1)c1ccc(OC(=O)NCc2ccccc2)cc1",
    "assayed.target": "PC-3 prostate",
    "growth, %": 47.8
  },
  {
    "smiles.string": "Nc1ccc(S(=O)(=O)F)cc1",
    "assayed.target": "PC-3 prostate",
    "growth, %": 105
  },
  {
    "smiles.string": "O=C1CN2CCC1CC2",
    "assayed.target": "PC-3 prostate",
    "growth, %": 104
  },
  {
    "smiles.string": "COc1ccc2c(c1)c(-c1nc(-c3cn(C)c4ncccc34)cs1)cn2CCCCN1CCOCC1",
    "assayed.target": "PC-3 prostate",
    "growth, %": 31.3
  }
]

Now consider a different compound.
-- ask Consider the compound O=c1[nH]c(=O)[nH]c(=O)[nH]1 and give its recorded growth.
-- reply 148
